test-name: Test 1: solubility of Edaravone in various aqueous solubilizer solutions (saturated solution at 4° C., HPLC)
Assay type: physicochemical
assay-setup: 50 v/v % propylene glycol in water, aqueous with cosolvent or surfactant or cyclodextrin, thermodynamic from solid; in 50 v/v % Propylene glycol, 4° C.
assay-metric: solubility (µg/mL)
Value expressed in µg/mL; do not type the unit.

Give the reported value of solubility for this record: CC1=NN(c2ccccc2)C(=O)C1 [Edaravone, 3-Methyl-l-phenyl-2-pyrazolin-5-one]
6000
